// provenance: patent US20220363718A1

TESTED SYSTEM: T1, Biotinylated human TSLP (human, biotinylated)
T1 construct: also called hTSLP; thymic stromal lymphopoietin
T1 sequence (chain, as listed by the source limits assumed): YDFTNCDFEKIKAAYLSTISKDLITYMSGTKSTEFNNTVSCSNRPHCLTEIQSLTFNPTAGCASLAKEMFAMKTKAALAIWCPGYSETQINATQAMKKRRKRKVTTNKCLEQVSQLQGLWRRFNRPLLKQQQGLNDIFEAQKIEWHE
METHOD NOTES: SPR, biotinylated hTSLP on streptavidin chip
*1 amine or outer side, *2 acyl side, *3 side chain or, on linkers, in order; H or OH if unused. Bridges are numbered along the chain shown (N, C = ends). Where no end group is shown, it is not given here. [ ]: non-standard residue; d: D form. TATA = O=C(CC[*:1])N1CN(C(=O)CC[*:2])CN(C(=O)CC[*:3])C1; Orn = NCCC[C@H](N)C(=O)O
ASSAY METRIC: pKd
Answers are plain numbers, as −log10 of the molar value.

In [3]: df
Out[3]:
                                     binder  assay_metric  reported_value
0  ACESLDPWSCPVWWRCA (linker 2-10-16 via TATA; not fully specified (C-terminus)) [Example 161]           pKd            6.05
1  RVNTHQCRDLDPWTCSSWWLCA (linker 7-15-21 via TATA) [Example 190]           pKd            7.09

We next turn to a different binder, shown below.
Record C[Orn]ELDPWTCETWWLC (linker 1-9-15 via TATA) [Example 180] . Reported pKd: 6.52
